Values were extracted from paper PMC5540273.

- Tested on: MINK
- Construct: gene MINK1
- condition_description: concentration: 1 μM, replicates: in singlicate; n = 1;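 note: KINOMEscan kinase panel screen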
Kind request: treat 5% as inclusive, so %Inh at 5% or higher is yes (1), anything lower is no (0).

Some entries whose results are on file:
| compound | assigned_category |
| --- | --- |
| O=c1cc(N2CCOCC2)nc2n(Cc3ccccc3F)ccn12 [GSK2297428] | yes (1) |
| CC(=O)c1c(C)c2cnc(Nc3ccn(C)n3)nc2n(C2CCCC2)c1=O | yes (1) |
| FC(F)(F)c1ccccc1-c1cc(-c2c[nH]nc2-c2ccccn2)ccn1 [GW679396] | yes (1) |

Q) Quick check: does COc1ccc(Nc2nccc(N3CCC(NC(=O)C(C)c4ccc(Cl)cc4)CC3)n2)cc1 (stereo not drawn) [GSK1379812] have %Inh greater than or equal to 5%?
A) yes (1)

Q) Same read-out for COc1ccc(CSc2nnc(-c3ccc4c(c3)CCO4)o2)cc1 ?
A) no (0)

----------
- Test system: WEE2
- condition_description: concentration: 1 μM, replicates: in singlicate; n = 1
property_measured: %Inh (%)
A number alone suffices; assume %.

Below, 3 compounds whose answers are already recorded.
| compound | %Inh [%] |
| --- | --- |
| Cc1c(Cn2c(C)c(C)n3c(=O)cc(N4CCOCC4)nc23)cccc1C(F)(F)F [GSK2328680] | 14 |
| CCCCc1nn2ncccc2c1-c1ccnc(NC2CC2)n1 [GW684374] | 0 |
| COC(=O)C(Cc1ccccc1)NC(=O)NC1CCN(c2ccnc(Nc3ccc(F)cc3)n2)C1 (stereo not shown) [GSK1379714] | 13 |

Q) For the compound CNC(=O)c1ccc(C)c(-n2c(C)cc(OCc3ccc(F)cc3F)c(Br)c2=O)c1 , what %Inh is on record?
A) 0

Q) Same read-out for COC(=O)c1cccc(NC(=O)NC2CCN(c3ccnc(Nc4ccc(OC)cc4)n3)C2)c1 (stereo not shown) [GSK1379746] ?
A) 0

Q) Same read-out for COc1ccc(CSc2nnc(-c3ccc4c(c3)CCO4)o2)cc1 ?
A) 14

Q) Same read-out for Fc1ccc(-c2nc3n(c2-c2ccncc2)CCS3)cc1 [GI98581] ?
A) 7

Q) Same read-out for O=c1cc(N2CCOCC2)nc2n(Cc3ccccc3F)ccn12 [GSK2297428] ?
A) 0

Q) Same read-out for CS(=O)(=O)Cc1ccc(Nc2nccc(-c3c(-c4cccc(NC(=O)C5CCCCC5)c4)nn4ncccc34)n2)cc1 [GSK350559] ?
A) 0

Q) Same read-out for CN1c2ccc(-c3ccc(C(N)=O)cc3)cc2-c2[nH]ncc2S1(=O)=O ?
A) 0

Q) Same read-out for CC(=O)c1cccc(NC(=O)NC2CCN(c3ccnc(Nc4ccc(F)cc4)n3)C2)c1 (stereo not shown) [GSK1379710] ?
A) 10

Q) Same read-out for COc1ccc(-c2coc3ccc(-c4nnc(C)o4)cc23)cc1 ?
A) 4

Q) Same read-out for CNCc1ccc2nc(NC(=O)c3ccc(C(C)(C)C)cc3)cn2c1 ?
A) 0

Q) Same read-out for COc1ccc(Nc2nccc(N3CCC(NC(=O)c4cc5ccccc5s4)C3)n2)cc1 (stereo not shown) [GSK1379738] ?
A) 0

----------
- System: TIE1
- condition_description: concentration: 1 μM, replicates: in singlicate; n = 1
property_measured: %Inh (%)
A number alone suffices; assume %.

Below, 3 compounds whose answers are already recorded.
| compound | tgt | test_value |
| --- | --- | --- |
| CCc1ccc(-c2ccc3c(c2)-c2n[nH]cc2S(=O)(=O)N3C)cc1 | TIE1 | 0 |
| CCn1c(-c2c(N)noc2C)nc2cnccc21 [SB-737856] | TIE1 | 0 |
| Cn1cnc2c(N)ncnc21 [SKF-97623] | TIE1 | 0 |

Q) For the compound O=C(Nc1n[nH]c2cc(-c3ccsc3)ccc12)C1CC1 [SB-732932] , what %Inh is on record?
A) 11

Q) Same read-out for O=C(Nc1n[nH]c2nc(-c3cccs3)c(Br)cc12)C1CCCC1 [SB-743341] ?
A) 33

Q) Same read-out for COc1ccc(CSc2nnc(-c3ccc4c(c3)CCO4)o2)cc1 ?
A) 0

Q) Same read-out for CS(=O)(=O)CCNCc1nc(-c2ccc3ncnc(Nc4ccc5c(cnn5Cc5ccccc5)c4)c3c2)cs1.Cl.Cl [GW569716] ?
A) 0

Q) Same read-out for Fc1ccc(-c2nc3n(c2-c2ccncc2)CCS3)cc1 [GI98581] ?
A) 19

Q) Same read-out for O=c1cc(N2CCOCC2)nc2n(Cc3cccc(Cl)c3Cl)c3ccccc3n12 [GSK2299009] ?
A) 24

----------
- System: AURKC
- condition_description: concentration: 1 μM, replicates: in singlicate; n = 1
Some compounds, each annotated with its measured %Inh.
A number alone suffices; assume %.

Below, 5 compounds whose answers are already recorded.
| compound | %Inh, % |
| --- | --- |
| CC(=O)c1cccc(NC(=O)NC2CCN(c3ccnc(Nc4ccc(F)cc4)n3)C2)c1 (centres unmarked) [GSK1379710] | 21 |
| CNc1cc(-c2ccc3c(N)n[nH]c3c2)nc(N)n1 [GSK2224810] | 10 |
| CNc1nc(-c2ccc3c(N)n[nH]c3c2)cc(N2C[C@@H](C(=O)NC3CCCCC3)OC[C@H]2C)n1 [GSK2375584] | 12 |
| CC(C)c1cc(-c2ccc3c(N)n[nH]c3c2)nc(N)n1 [GSK2250882] | 56 |
| Cc1ccc(NC(=O)Nc2ccccc2F)cc1-c1ccc(C(=O)Nc2ccncc2)cc1 [GSK1398477] | 27 |

Q) Lab request: please report %Inh under test system AURKC for Cc1cnc(N)c(/C=C/c2cncc(C(=O)NCCc3ccc(Cl)cc3Cl)c2)c1.Cl [GSK190937]
A) 12

Q) Same read-out for Nc1cccc(-c2ccc3c(N)n[nH]c3c2)n1 [GSK2192730] ?
A) 22

Q) Same read-out for CS(=O)(=O)Cc1ccc(Nc2nccc(-c3c(-c4cccc(NC(=O)C5CCCCC5)c4)nn4ncccc34)n2)cc1 [GSK350559] ?
A) 49

----------
- Test system: CDKL5
- condition_description: concentration: 1 μM, replicates: in singlicate; n = 1
property_measured: %Inh (%)
A number alone suffices; assume %.

| compound | tgt | %Inh, % |
| --- | --- | --- |
| COc1cc2ncnc(Nc3cccc(Br)c3)c2cc1OC.Cl | CDKL5 | 0 |
| COc1ccc(Nc2nccc(-c3ccc(NC(=O)c4cc5cc(F)ccc5[nH]4)cc3)n2)cc1 | CDKL5 | 0 |
| Cc1ccc(NC(=O)Nc2ccccc2)cc1-c1ccc(C(=O)Nc2ccncc2)cc1 | CDKL5 | 11 |
| CNCc1ccc2nc(NC(=O)c3ccc(C(C)(C)C)cc3)cn2c1 | CDKL5 | 23 |
| Cc1c(Cn2c3ccccc3n3c(=O)cc(N4CCOCC4)nc23)cccc1C(F)(F)F | CDKL5 | 0 |
| Cn1cnc2c(N)ncnc21 | CDKL5 | 0 |
| CCn1c(-c2ccccc2)nc2cnccc21 | CDKL5 | 4 |
| O=C1NC(=O)C(c2ccc(Cl)cc2)=C1Nc1cccc(Cl)c1 | CDKL5 | 0 |

// moving on: another record for %Inh
Q) For the compound COC(=O)c1cccc(NC(=O)NC2CCN(c3ccnc(Nc4ccc(OC)cc4)n3)C2)c1 (stereo not drawn) , what %Inh is on record?
A) 0

----------
Some compounds, each annotated with its measured %Inh.
- Test system: MERTK
- condition_description: concentration: 1 μM, replicates: in singlicate; n = 1
A number alone suffices; assume %.

Below, 8 compounds whose answers are already recorded.
| compound | tgt | property_measured | scale_unit | test_value |
| --- | --- | --- | --- | --- |
| CNc1nc(-c2ccc3c(N)n[nH]c3c2)cc(N2C[C@@H](C(=O)Nc3ccccc3)CC[C@H]2C)n1 | MERTK | %Inh | % | 35 |
| O=C(Nc1n[nH]c2nc(-c3cccs3)c(Br)cc12)C1CCCC1 | MERTK | %Inh | % | 0 |
| COc1cccc(C2=C(Nc3cc(Cl)c(O)c(Cl)c3)C(=O)NC2=O)c1 | MERTK | %Inh | % | 0 |
| COc1ccc(CSc2nnc(-c3ccc4nccn4c3)o2)cc1C(F)(F)F | MERTK | %Inh | % | 5 |
| Cc1nccc(-c2c(-c3ccc(F)cc3)ncn2CCCN2CCOCC2)n1.Cl | MERTK | %Inh | % | 24 |
| CC[C@@H]1CO[C@H](C(=O)Nc2ccccc2)CN1c1cc(-c2ccc3c(N)n[nH]c3c2)nc(NC)n1 | MERTK | %Inh | % | 3 |
| Cc1cnc(N)c(/C=C/c2cncc(C(=O)NCCc3ccc(Cl)cc3Cl)c2)c1.Cl | MERTK | %Inh | % | 29 |
| CNCc1ccc2nc(NC(=O)c3ccc(C(C)(C)C)cc3)cn2c1 | MERTK | %Inh | % | 5 |

// moving on: another record for %Inh
Q) For the compound Cn1cncc1C(=O)NC1CCN(c2ccnc(Nc3ccc(F)cc3)n2)C1 (stereo not drawn) , what %Inh is on record?
A) 5
